Each item that follows carries a reported pIC50.
Test system: SR
protocol-notes: Antiproliferative activity against human SR cells assessed as inhibition of cell growth
Assay type: functional, cell-based
On this scale, pIC50 is minus log10 of a concentration expressed in M (mol/L).

Find the recorded pIC50 belonging to COc1ccc(-c2nc(N/N=C/c3cccc(O)c3)nc(N3CCOCC3)c2C#N)cc1 and report it. 4.87

Find the recorded pIC50 belonging to COc1ccc(-c2nc(N/N=C/c3cccc(Br)c3)nc(N3CCOCC3)c2C#N)cc1 and report it. 6.12

Find the recorded pIC50 belonging to COc1ccc(-c2nc(N/N=C/c3ccc(O)c(OC)c3)nc(N3CCOCC3)c2C#N)cc1 and report it. 5.36

====

Each item that follows carries a reported inhibition of growth at 10 µM.
Tested on: SK-MEL-2
protocol-notes: Antitumor activity against human SK-MEL-2 cells assessed as growth inhibition at 10 uM relative to control
Format: functional
assay-context: read-out: GI

// known answers, use as guide
N#Cc1c(-c2ccc(Cl)cc2)nc(N/N=C/c2cccc([N+](=O)[O-])c2)nc1N1CCOCC1 :: 10.4%
CC1=NN(c2nc(-c3ccc(Cl)cc3)c(C#N)c(N3CCOCC3)n2)C(=O)C1 :: 12.9%

Find the recorded inhibition of growth at 10 µM belonging to COc1cc(/C=N/Nc2nc(-c3ccc(Cl)cc3)c(C#N)c(N3CCOCC3)n2)cc(OC)c1OC and report it. 20.4%

Find the recorded inhibition of growth at 10 µM belonging to CSc1nc(O)c(C#N)c(-c2ccc(Cl)cc2)n1 and report it. < 1%

Find the recorded inhibition of growth at 10 µM belonging to N#Cc1c(-c2ccc(Cl)cc2)nc(N/N=C/c2cccc(O)c2)nc1N1CCOCC1 and report it. < 1%

Find the recorded inhibition of growth at 10 µM belonging to CSc1nc(-c2ccc(Cl)cc2)c(C#N)c(N2CCOCC2)n1 and report it. < 1%

Find the recorded inhibition of growth at 10 µM belonging to N#Cc1c(-c2ccc(Cl)cc2)nc(NN)nc1N1CCOCC1 and report it. < 1%

Find the recorded inhibition of growth at 10 µM belonging to N#Cc1c(-c2ccc(Cl)cc2)[nH]c(=S)[nH]c1=O and report it. < 1%

Find the recorded inhibition of growth at 10 µM belonging to N#Cc1c(-c2ccc(Cl)cc2)nc(N/N=C2/C(=O)Nc3ccc(Cl)cc32)nc1N1CCOCC1 and report it. < 1%

Find the recorded inhibition of growth at 10 µM belonging to N#Cc1c(-c2ccc(Cl)cc2)nc(N/N=C/c2cccc(F)c2)nc1N1CCOCC1 and report it. < 1%

====

Each item that follows carries a reported inhibition of growth at 10 µM.
System: OVCAR-8
protocol-notes: Antitumor activity against human OVCAR-8 cells assessed as growth inhibition at 10 uM relative to control
Assay type: functional
assay-context: read-out: GI

CSc1nc(O)c(C#N)c(-c2ccc(Cl)cc2)n1 :: < 1%

Find the recorded inhibition of growth at 10 µM belonging to N#Cc1c(-c2ccc(Cl)cc2)nc(NN2C(=O)CCC2=O)nc1N1CCOCC1 and report it. < 1%

Find the recorded inhibition of growth at 10 µM belonging to N#Cc1c(-c2ccc(Cl)cc2)nc(N/N=C/c2cccc(Br)c2)nc1N1CCOCC1 and report it. < 1%

====

System: HT-29
protocol-notes: Antitumor activity against human HT-29 cells assessed as growth inhibition at 10 uM relative to control
Type: functional
assay-context: read-out: GI
experimental-readout: inhibition of growth at 10 µM

N#Cc1c(-c2ccc(Cl)cc2)nc(N/N=C/c2ccc[nH]2)nc1N1CCOCC1 :: 33.8%

Find the recorded inhibition of growth at 10 µM belonging to N#Cc1c(-c2ccc(Cl)cc2)nc(N/N=C/c2cccc(O)c2)nc1N1CCOCC1 and report it. 30.2%

Find the recorded inhibition of growth at 10 µM belonging to N#Cc1c(-c2ccc(Cl)cc2)nc(N/N=C/c2cccc([N+](=O)[O-])c2)nc1N1CCOCC1 and report it. < 1%

Find the recorded inhibition of growth at 10 µM belonging to CSc1nc(-c2ccc(Cl)cc2)c(C#N)c(N2CCOCC2)n1 and report it. 15.3%

Find the recorded inhibition of growth at 10 µM belonging to N#Cc1c(-c2ccc(Cl)cc2)nc(N/N=C2/C(=O)Nc3ccc(Br)cc32)nc1N1CCOCC1 and report it. < 1%

Find the recorded inhibition of growth at 10 µM belonging to COc1cc(/C=N/Nc2nc(-c3ccc(Cl)cc3)c(C#N)c(N3CCOCC3)n2)cc(OC)c1OC and report it. 69.3%

Find the recorded inhibition of growth at 10 µM belonging to CSc1nc(Cl)c(C#N)c(-c2ccc(Cl)cc2)n1 and report it. < 1%

Find the recorded inhibition of growth at 10 µM belonging to CSc1nc(O)c(C#N)c(-c2ccc(Cl)cc2)n1 and report it. < 1%

Find the recorded inhibition of growth at 10 µM belonging to N#Cc1c(-c2ccc(Cl)cc2)nc(NN2C(=O)c3ccccc3C2=O)nc1N1CCOCC1 and report it. < 1%

Find the recorded inhibition of growth at 10 µM belonging to N#Cc1c(-c2ccc(Cl)cc2)nc(N/N=C/c2cccc(Br)c2)nc1N1CCOCC1 and report it. 71%

Find the recorded inhibition of growth at 10 µM belonging to N#Cc1c(-c2ccc(Cl)cc2)nc(N/N=C/c2ccco2)nc1N1CCOCC1 and report it. 13%

====

Test system: MDA-MB-231
protocol-notes: Antitumor activity against human MDA-MB-231 cells assessed as growth inhibition at 10 uM relative to control
Assay type: functional
assay-context: read-out: GI
Each item that follows carries a reported inhibition of growth at 10 µM.

// known answers, use as guide
CSc1nc(-c2ccc(Cl)cc2)c(C#N)c(N2CCOCC2)n1 :: < 1%
N#Cc1c(-c2ccc(Cl)cc2)nc(N/N=C/c2cccc(Cl)c2)nc1N1CCOCC1 :: < 1%
N#Cc1c(-c2ccc(Cl)cc2)nc(NN2C(=O)CCC2=O)nc1N1CCOCC1 :: < 1%
CSc1nc(O)c(C#N)c(-c2ccc(Cl)cc2)n1 :: < 1%

Here's the next entry for you.
Find the recorded inhibition of growth at 10 µM belonging to COc1cc(/C=N/Nc2nc(-c3ccc(Cl)cc3)c(C#N)c(N3CCOCC3)n2)cc(OC)c1OC and report it. 27.8%

====

Each item that follows carries a reported inhibition of growth at 10 µM.
Test system: MOLT-4
protocol-notes: Antitumor activity against human MOLT-4 cells assessed as growth inhibition at 10 uM relative to control
Assay type: functional
assay-context: read-out: GI
Numeric answer only, unit % assumed.

N#Cc1c(-c2ccc(Cl)cc2)nc(N/N=C/c2cccc(O)c2)nc1N1CCOCC1 :: 60.2
CSc1nc(Cl)c(C#N)c(-c2ccc(Cl)cc2)n1 :: 27.6
N#Cc1c(-c2ccc(Cl)cc2)nc(N/N=C/c2ccc[nH]2)nc1N1CCOCC1 :: 82.6

Here's the next entry for you.
Form field: inhibition of growth at 10 µM recorded for N#Cc1c(-c2ccc(Cl)cc2)nc(N/N=C/c2ccco2)nc1N1CCOCC1 with MOLT-4 (enter value) 17

====

Each item that follows carries a reported pIC50.
measurement-target: Phosphatidylinositol 4,5-bisphosphate 3-kinase catalytic subunit alpha isoform (Homo sapiens)
Sequence (P42336 whole entry, canonical isoform): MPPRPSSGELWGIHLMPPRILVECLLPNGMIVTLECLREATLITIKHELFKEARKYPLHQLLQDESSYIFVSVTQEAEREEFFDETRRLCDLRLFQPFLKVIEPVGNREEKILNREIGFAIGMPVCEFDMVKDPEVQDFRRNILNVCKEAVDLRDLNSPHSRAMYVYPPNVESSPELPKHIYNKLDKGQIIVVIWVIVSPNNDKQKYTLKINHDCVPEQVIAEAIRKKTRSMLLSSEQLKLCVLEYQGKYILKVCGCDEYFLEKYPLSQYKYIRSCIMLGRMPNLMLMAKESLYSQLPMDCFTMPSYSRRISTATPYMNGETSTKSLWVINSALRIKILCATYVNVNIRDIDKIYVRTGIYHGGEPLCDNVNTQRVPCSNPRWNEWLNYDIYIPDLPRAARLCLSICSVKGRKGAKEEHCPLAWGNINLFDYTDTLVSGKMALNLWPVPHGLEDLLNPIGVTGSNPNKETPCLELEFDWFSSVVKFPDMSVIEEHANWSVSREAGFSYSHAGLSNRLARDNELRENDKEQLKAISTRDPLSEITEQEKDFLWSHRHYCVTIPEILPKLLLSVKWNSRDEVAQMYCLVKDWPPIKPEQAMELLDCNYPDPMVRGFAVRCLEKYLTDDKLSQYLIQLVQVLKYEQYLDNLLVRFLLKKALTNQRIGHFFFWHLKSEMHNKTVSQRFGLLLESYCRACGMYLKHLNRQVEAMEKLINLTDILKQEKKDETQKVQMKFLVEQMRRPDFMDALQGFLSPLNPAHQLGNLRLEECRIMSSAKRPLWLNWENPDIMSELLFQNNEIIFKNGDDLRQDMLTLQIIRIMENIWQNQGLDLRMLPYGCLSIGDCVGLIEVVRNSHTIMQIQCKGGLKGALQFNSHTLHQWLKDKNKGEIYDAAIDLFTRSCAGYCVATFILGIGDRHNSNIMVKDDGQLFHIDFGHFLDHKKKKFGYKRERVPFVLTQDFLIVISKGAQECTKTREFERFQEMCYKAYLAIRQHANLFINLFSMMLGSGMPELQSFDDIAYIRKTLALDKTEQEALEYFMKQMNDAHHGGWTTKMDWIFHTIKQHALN
protocol-notes: Inhibition of PI3Kalpha (unknown origin)
On this scale, pIC50 is minus log10 of a concentration expressed in M (mol/L).

N#Cc1c(-c2ccc(Cl)cc2)nc(N/N=C/c2cccc(O)c2)nc1N1CCOCC1 :: 5.90

Here's the next entry for you.
Find the recorded pIC50 belonging to N#Cc1c(-c2ccc(Cl)cc2)nc(N/N=C/c2cccc(Cl)c2)nc1N1CCOCC1 and report it. 6.77

====

Each item that follows carries a reported inhibition of growth at 10 µM.
Tested on: NCI-H522
protocol-notes: Antitumor activity against human NCI-H522 cells assessed as growth inhibition at 10 uM relative to control
Type: functional
assay-context: read-out: GI
Numeric answer only, unit % assumed.

// known answers, use as guide
N#Cc1c(-c2ccc(Cl)cc2)nc(NN2C(=O)CCC2=O)nc1N1CCOCC1 :: 16
N#Cc1c(-c2ccc(Cl)cc2)nc(N/N=C/c2ccco2)nc1N1CCOCC1 :: 37.7
N#Cc1c(-c2ccc(Cl)cc2)nc(N/N=C/c2cccc(O)c2)nc1N1CCOCC1 :: 25.2
N#Cc1c(-c2ccc(Cl)cc2)nc(N/N=C/c2cccc([N+](=O)[O-])c2)nc1N1CCOCC1 :: 24.1
CSc1nc(-c2ccc(Cl)cc2)c(C#N)c(N2CCOCC2)n1 :: 30.2

Find the recorded inhibition of growth at 10 µM belonging to CC1=NN(c2nc(-c3ccc(Cl)cc3)c(C#N)c(N3CCOCC3)n2)C(=O)C1 and report it. 21.1

Find the recorded inhibition of growth at 10 µM belonging to N#Cc1c(-c2ccc(Cl)cc2)nc(N2NC(=O)CC2=N)nc1N1CCOCC1 and report it. 13.6

Find the recorded inhibition of growth at 10 µM belonging to N#Cc1c(-c2ccc(Cl)cc2)nc(N/N=C/c2ccc[nH]2)nc1N1CCOCC1 and report it. 91.7

Find the recorded inhibition of growth at 10 µM belonging to N#Cc1c(-c2ccc(Cl)cc2)nc(N/N=C/c2cccc(F)c2)nc1N1CCOCC1 and report it. 11.6

Find the recorded inhibition of growth at 10 µM belonging to Cc1cc(C)n(-c2nc(-c3ccc(Cl)cc3)c(C#N)c(N3CCOCC3)n2)n1 and report it. 14.3

Find the recorded inhibition of growth at 10 µM belonging to COc1cc(/C=N/Nc2nc(-c3ccc(Cl)cc3)c(C#N)c(N3CCOCC3)n2)cc(OC)c1OC and report it. 31.4
